# study system: human β3 adrenergic receptor (Homo sapiens, UniProt P13945)
# Construct: stably transfected with the cloned β-adrenergic receptor (β1, β2 or β3); expressed in transfected cells; host or cells: Chinese hamster ovary (CHO) cells, stably transfected
# Sequence (P13945 whole entry): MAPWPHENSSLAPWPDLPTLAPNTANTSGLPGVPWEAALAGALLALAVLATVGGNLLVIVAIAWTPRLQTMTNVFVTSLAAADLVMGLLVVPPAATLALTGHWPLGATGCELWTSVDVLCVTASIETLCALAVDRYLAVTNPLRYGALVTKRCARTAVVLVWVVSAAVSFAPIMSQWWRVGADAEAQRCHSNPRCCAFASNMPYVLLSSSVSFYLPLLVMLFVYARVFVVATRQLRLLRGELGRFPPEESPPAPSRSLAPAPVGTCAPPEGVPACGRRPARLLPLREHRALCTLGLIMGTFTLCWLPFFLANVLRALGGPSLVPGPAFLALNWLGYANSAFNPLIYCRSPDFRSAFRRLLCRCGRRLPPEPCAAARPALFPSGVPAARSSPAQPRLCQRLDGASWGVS
# run description: Functional assay: cAMP production (LANCE TR-FRET) in CHO cells stably transfected with cloned β3 adrenergic receptor
# Type: cell-based
# test context: Table 4; cAMP production, CHO cells expressing human β3 AR; read-out: Human β3 functional
recorded endpoint: EC50

Reference set, count: 3
| compound | EC50 |
| --- | --- |
| N#Cc1cccc(S(=O)(=O)Nc2ccc(CC3CC[C@H]([C@H](O)c4cccnc4)N3)cc2)c1 (stereo partly shown) | 101 to 1000 nM |
| O=S(=O)(Nc1ccc(CC2CC[C@H]([C@H](O)c3cccnc3)N2)cc1)c1ccc2ncsc2c1 (stereo partly shown) | 101 to 1000 nM |
| O=S(=O)(Nc1ccc(CC2CC[C@H]([C@H](O)c3cccnc3)N2)cc1)c1ccc(I)cc1 (stereo partly shown) | 11 to 100 nM |

Next compound, EC50 to be filled in.
// fetch EC50 for O=S(=O)(Nc1ccc(CC2CC[C@H]([C@H](O)c3cccnc3)N2)cc1)c1ccc(-c2nc(-c3ccc(C(F)(F)F)cc3)cs2)cc1 (stereo partly shown) ; system: human β3 adrenergic receptor (Homo sapiens, UniProt P13945) 1 to 10 nM

// data source = patent US8501786B2
